Please provide measured %Inh for the entries that follow.
Test system: QSK
Conditions: concentration: 1 μM, replicates: in singlicate; n = 1;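 also: KINOMEscan kinase panel screen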
Lab book: enter the figure in %, no units written.

# %Inh of COc1cc2c(Nc3cccc(NC(=O)c4ccccc4)c3)ncnc2cc1OCCCN1CCOCC1 [GSK223810] = 0

Documented %Inh of Nc1nc(-c2cccnc2)c(-c2ccnc3ccccc23)s1 [GW684083] : 5

%Inh measured on COc1ccc(NC(=O)c2ccc(-c3cc(-c4nnc(C)o4)ccc3C)cc2)cc1 [GW595885] = 21

Entry FC(F)(F)c1ccc(-c2nn3ncccc3c2-c2ccnc(Nc3cccc(C(F)(F)F)c3)n2)cc1 [GW828205] , %Inh reported as 0

Consider Cl.O=S(=O)(c1cccc(F)c1)c1ccc(Nc2ncnc3cc(Br)sc23)cc1Cl [GSK306886] . Its measured %Inh is 0

For Cc1ccc(C)c(NC(=O)NCCNc2ccnc(Nc3ccc(F)cc3)n2)c1 [GSK1379878] the molecule record lists %Inh as 0

get_value(item= NC(=O)c1sc(-n2cnc3ccccc32)cc1OCc1ccccc1F [GSK1024306] , readout=%Inh) returns 0

---

Would you mind telling me the reported %Inh of each entry?
Test system: ERK4
Construct: gene MAPK4
Details: concentration: 1 μM, replicates: in singlicate; n = 1
Report only the number, with the unit % understood.

Here `Cc1ccc(O)cc1Nc1cc(C(F)(F)F)nc2ccc(-c3ccncc3)cc12` was tested on ERK4, and its %Inh came to 5

Form field %Inh for item `Cl.c1ccc(Cn2ncc3cc(Nc4ncnc5ccccc45)ccc32)cc1` on ERK4: 35

The reported %Inh value, ERK4, for `COc1ccc(NC(=O)Nc2ccc(C)c(-c3ccc(C(=O)Nc4ccncc4)cc3)c2)cc1` reads 0

Tested on ERK4: `CS(=O)(=O)CCNCc1nc(-c2ccc3ncnc(Nc4ccc(OCc5cccc(F)c5)c(Cl)c4)c3c2)cs1.Cl` . Observed %Inh: 45

---

Test system: NIM1
Construct: gene MGC42105
Details: concentration: 1 μM, replicates: in singlicate; n = 1
So I've got a bunch of molecules here, and I need their %Inh values.
Express the result in % but write the number alone.

%Inh for `Cl.O=S(=O)(c1cccc(F)c1)c1ccc(Nc2ncnc3cc(Br)sc23)cc1Cl` is 0

Data point: `Cc1ccc(NC(=O)c2cccc(C#N)c2)cc1-c1ccc(C(=O)Nc2ccncc2)cc1` ; %Inh = 8

Consider `Fc1cccc(COc2ccc(Nc3ncnc4nn5ccccc5c34)cc2Cl)c1` . Its measured %Inh is 13

Looking up `CS(=O)(=O)CCNCc1ccc(-c2ccc3ncnc(Nc4ccc(OCc5ccccc5)c(Cl)c4)c3c2)o1.Cl` , I found its %Inh recorded as 0

Measured %Inh of `COc1ccc(-c2oc3ncnc(N)c3c2-c2ccc(OC)cc2)cc1` : 37

---

Tested on: PDGFRA
Details: concentration: 1 μM, replicates: in singlicate; n = 1
Measured Property: %Inh (%)
Answer format: numeric, % implied, no suffix.

So for `CNc1nccc(-c2c(-c3ccc(F)cc3)ncn2CCCN2CCOCC2)n1` , the logged %Inh turned out to be 0

Reported %Inh ( `C[C@H]1CC[C@@H](C(=O)Nc2ccccc2)CN1c1cc(-c2ccc3c(N)n[nH]c3c2)nc(N)n1` ) = 0

Entry `COC(=O)c1cccc(NC(=O)NCCNc2ccnc(Nc3ccc(F)cc3)n2)c1` — recorded %Inh = 0

The reported value for `FC(F)(F)c1ccc(-c2nn3ncccc3c2-c2ccnc(Nc3cccc(C(F)(F)F)c3)n2)cc1` in terms of %Inh is 0

The reported value for `COc1ccc(-c2oc3ncnc(N)c3c2-c2ccc(OC)cc2)cc1` in terms of %Inh is 17

// %Inh value for `N#Cc1ccc(Oc2ccc(Nc3ncnc4cc[nH]c34)cc2Cl)cc1` : 25

molecule CCCc1ccc(S(=O)(=O)NC2CCN(c3ccnc(Nc4ccc(OC)cc4)n3)C2)cc1 (stereo not drawn) , %Inh observed: 0

For record `C[C@@H]1CCN(C(=O)CO)C[C@@H]1N(C)c1ncnc2[nH]ccc12` the listed %Inh is 0

Field %Inh (entry `Oc1ccc2ncnc(Nc3ccc(OCc4ccccc4)cc3)c2c1` ) reads 0

Per the records, this molecule ( `Fc1cccc(COc2ccc(Nc3ncnc4sc(-c5ccc[nH]5)cc34)cc2Cl)c1` ) has %Inh equal to 0

# molecule `Fc1ccc(-c2ncn(CCCNCc3ccccc3)c2-c2ccncc2)cc1` ; its %Inh = 0

// %Inh value for `O=C(c1ccc(-c2cc(-c3c[nH]nc3-c3ccccn3)ccn2)cc1)N1CCCC1` : 0

molecule `Cn1ccc2ncnc(Oc3ccc(NC(=O)Nc4cccnc4)c(Cl)c3)c21` , %Inh observed: 91.8

Record `COc1ccc(NC(=O)Nc2ccc(C)c(-c3ccc(C(=O)Nc4ccncc4)cc3)c2)cc1` , field %Inh: 28

Lookup result for COc1ccc(Nc2nccc(N3CCC(NC(=O)Nc4ccc5c(c4)OCO5)C3)n2)cc1 (stereo not drawn) ; measured %Inh: 0

The molecule listed as `Cc1cccc(-c2nc(Nc3ccc4[nH]nnc4c3)c3ccccc3n2)n1` shows %Inh equal to 0

get_value(item= `OCCOCCn1ccc2ncnc(Nc3ccc(Oc4cccc(Cl)c4)c(Cl)c3)c21` , readout=%Inh) returns 0

Lab book: %Inh of `COc1cc2c(Nc3cccc(NC(=O)c4ccccc4)c3)ncnc2cc1OCCCN1CCOCC1` noted as 63

Record `CS(=O)(=O)CCNCc1nc(-c2ccc3ncnc(Nc4ccc(OCc5cccc(F)c5)c(Cl)c4)c3c2)cs1.Cl` , field %Inh: 0

The molecule identified as `Fc1ccc(Nc2nccc(-c3c(-c4ccc(Cl)cc4)nn4ncccc34)n2)cc1F` registered its %Inh at 19

Recorded %Inh (molecule `O=C(CCO)NCCn1ccc2ncnc(Nc3ccc(Oc4cccc(C(F)(F)F)c4)c(Cl)c3)c21` ): 0

Please fill in: %Inh reported for `FC(F)(F)c1ccc(-c2cc(-c3c[nH]nc3-c3ccccn3)ccn2)cc1` = 11

The recorded %Inh for entry `Nc1nccc2scc(-c3ccc4c(c3)CCN4C(=O)Cc3cc(F)ccc3F)c12` equals 0

Per the record, `Clc1cc(Nc2ncnc3cc[nH]c23)ccc1OCc1ccccn1` has %Inh of 29

Looking up `Nc1n[nH]c2nnc(-c3ccccc3)cc12` , I found its %Inh recorded as 0

Looking up `COC(=O)c1c(-c2ccccc2)c2cc(Cl)ccc2c(=O)n1Cc1ccc(S(C)(=O)=O)cc1` , I found its %Inh recorded as 15

get_value(item= `COc1cc2ncnc(Nc3ccc(OCc4ccccc4Br)c(Cl)c3)c2cc1OC.Cl` , readout=%Inh) returns 0

Short answer for `Fc1cccc(COc2ccc(Nc3ncnc4nn5ccccc5c34)cc2Cl)c1` : %Inh was 0

Form: molecule = `Nc1nc(-c2ccccn2)c(-c2ccnc3ccccc23)s1` ; %Inh = 1

response.value for `O=C(NCCCN1CCCC1=O)c1cnc(NCc2cc(Cl)ccc2Cl)nc1NC1CCNCC1` (field: %Inh) = 0

# %Inh (molecule: `FC(F)(F)c1cc(Nc2nccc(-c3c(-c4ccc(Cl)cc4)nn4ncccc34)n2)ccc1Cl` ) is 0

Sure, the documented %Inh for `Cc1ccc(O)cc1Nc1cc(C(F)(F)F)nc2ccc(-c3ccncc3)cc12` is 0

Recorded result, `Cc1ccc(NC(=O)c2cccc(C#N)c2)cc1-c1ccc(C(=O)Nc2ccncc2)cc1` , %Inh: 86

// recorded %Inh for `Cc1cc(N2CCC(NS(=O)(=O)c3ccc(F)cc3)CC2)nc(Nc2cccc(C#N)c2)n1.O=C(O)C(F)(F)F` : 0

For record `Clc1cccc(-c2nc(Nc3ccncc3)c3ccccc3n2)c1` the listed %Inh is 0

get_value(item= CC(C)(C)OC(=O)NC1CCCN(c2cc(-c3ccc4c(N)n[nH]c4c3)nc(N)n2)C1 (stereo not drawn) , readout=%Inh) returns 0

---

Test system: YSK4
Construct: gene MAP3K19
Conditions: concentration: 1 μM, replicates: in singlicate; n = 1
Assign %Inh to each entry below.
Output spec: scalar in %, unitless text.

Briefly, %Inh measured for `CCc1nc(-c2cccc(C)c2)c(-c2ccnc(NC(=O)c3ccccc3)c2)s1` : 23

get_value(item= `N#Cc1ccc(Oc2ccc(Nc3ncnc4cc[nH]c34)cc2Cl)cc1` , readout=%Inh) returns 20

So, `Nc1nc(-c2cccnc2)c(-c2ccnc3ccccc23)s1` ? Its %Inh was 60

// field: %Inh; key: `COc1ccc(NC(=O)c2ccc(-c3cc(-c4nnc(C)o4)ccc3C)cc2)cc1` ; value = 34

The measured %Inh associated with `CSc1ccc(NC2=C(c3ccccc3Cl)C(=O)NC2=O)cc1` reads 0

---

Tested on: PIK4CB
Construct: gene PI4KB
Settings: concentration: 1 μM, replicates: in singlicate; n = 1
Hi there, I'd appreciate the recorded %Inh for every entry that follows.
Write it as a number; the unit % goes unstated.

The measured %Inh associated with `Fc1cccc(COc2ccc(Nc3ncnc4sc(-c5ccc[nH]5)cc34)cc2Cl)c1` reads 0

Recorded %Inh (compound `CSc1ccc(NC2=C(c3ccccc3Cl)C(=O)NC2=O)cc1` ): 0

For record `Cl.O=S(=O)(c1cccc(F)c1)c1ccc(Nc2ncnc3cc(Br)sc23)cc1Cl` the listed %Inh is 6

For record `Cc1ccc(C)c(NC(=O)NCCNc2ccnc(Nc3ccc(F)cc3)n2)c1` the listed %Inh is 0

Just so you know, measured %Inh for `CCn1c(-c2ccncc2)nc2cnccc21` came out at 21

get_value(item= `FC(F)(F)c1cc(Nc2nccc(-c3c(-c4ccc(Cl)cc4)nn4ncccc34)n2)ccc1Cl` , readout=%Inh) returns 0

Recorded result, `CC(=O)Nc1n[nH]c2ncc(-c3ccccc3)cc12` , %Inh: 44

Given item `COc1ccc(-c2oc3ncnc(N)c3c2-c2ccc(OC)cc2)cc1` , the value recorded as its %Inh is 10

So, `Fc1ccc(Nc2nccc(-c3c(-c4ccc(Cl)cc4)nn4ncccc34)n2)cc1F` ? Its %Inh was 32
